Molecular target: T1, human neutrophil elastase (human, UniProt P08246 30-247)
T1 construct: also called hNE; HNE
T1 sequence (looked up): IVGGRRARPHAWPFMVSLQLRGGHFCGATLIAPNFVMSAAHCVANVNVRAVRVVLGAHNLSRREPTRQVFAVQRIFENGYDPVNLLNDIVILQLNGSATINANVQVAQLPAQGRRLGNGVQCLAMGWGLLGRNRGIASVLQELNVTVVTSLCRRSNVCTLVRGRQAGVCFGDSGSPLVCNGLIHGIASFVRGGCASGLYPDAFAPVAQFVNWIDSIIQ
Experiment: enzyme inhibition, tight-binding model; 100 pM hNE (summary table, repeats Table 3)
Where no end group is shown, it is not given here.
metric: Ki
Show the value, then the unit it is measured in.

Some solved cases for reference:
binder | Ki
DX-890 conjugated to a 30 kDa PEG moiety (conjugated at pH 6) (designed binder, single 30 kDa mPEG (MPEG-SPA30K) attached, mono-PEGylated; reaction at pH 6.0, headed 'N-Terminal-Site Modification', also called PEG30-DX-890-6.0; +30K PEG, pH 6) EACNLPIVRGPCIAFFPRWAFDAVKGKCVLFPYGGCQGNGNKFYSEKECREYCGVP | 8 pM
DX-890 (designed binder, disulfide (positions not given here); also: three intramolecular disulfides, pairing not given here, 56 aa, three intramolecular disulfides; also called EPI-hNE4; Native DX-890) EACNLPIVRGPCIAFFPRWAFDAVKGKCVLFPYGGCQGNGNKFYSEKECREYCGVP | 7 pM
DX-890 conjugated to a 30 kDa PEG moiety (conjugated at pH 7.4) (designed binder, single 30 kDa mPEG (MPEG-SPA30K) attached, mono-PEGylated; reaction at pH 7.4, headed 'Random-Site Modification' (site not determined), also called PEG30-DX-890-7.4; +30K PEG, pH 7.4) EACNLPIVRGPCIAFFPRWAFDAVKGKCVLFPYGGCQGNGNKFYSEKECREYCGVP | 16 pM
DX-890 conjugated to a 20 kDa PEG moiety (conjugated at pH 6) (designed binder, single 20 kDa mPEG (MPEG-SPA20K) attached, mono-PEGylated; reaction at pH 6.0, headed 'N-Terminal-Site Modification', also called PEG20-DX-890-6.0; +20K PEG, pH 6) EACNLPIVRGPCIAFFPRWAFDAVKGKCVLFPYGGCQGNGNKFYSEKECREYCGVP | 7 pM

API: the following record is the query input.
The binder identified as DX-890 conjugated to a 20 kDa PEG moiety (conjugated at pH 7.4) (designed binder, single 20 kDa mPEG (MPEG-SPA20K) attached, mono-PEGylated; reaction at pH 7.4, headed 'Random-Site Modification' (site not determined), also called PEG20-DX-890-7.4; +20K PEG, pH 7.4) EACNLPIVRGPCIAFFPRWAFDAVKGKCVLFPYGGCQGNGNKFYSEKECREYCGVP registered its Ki at 8 pM

The origin of these recorded values is patent US20070020252A1.
